- System Name: Torsin-1A-interacting protein 1 (Homo sapiens) (UniProt Q5JTV8)
- Sequence (Q5JTV8 whole entry, looked up): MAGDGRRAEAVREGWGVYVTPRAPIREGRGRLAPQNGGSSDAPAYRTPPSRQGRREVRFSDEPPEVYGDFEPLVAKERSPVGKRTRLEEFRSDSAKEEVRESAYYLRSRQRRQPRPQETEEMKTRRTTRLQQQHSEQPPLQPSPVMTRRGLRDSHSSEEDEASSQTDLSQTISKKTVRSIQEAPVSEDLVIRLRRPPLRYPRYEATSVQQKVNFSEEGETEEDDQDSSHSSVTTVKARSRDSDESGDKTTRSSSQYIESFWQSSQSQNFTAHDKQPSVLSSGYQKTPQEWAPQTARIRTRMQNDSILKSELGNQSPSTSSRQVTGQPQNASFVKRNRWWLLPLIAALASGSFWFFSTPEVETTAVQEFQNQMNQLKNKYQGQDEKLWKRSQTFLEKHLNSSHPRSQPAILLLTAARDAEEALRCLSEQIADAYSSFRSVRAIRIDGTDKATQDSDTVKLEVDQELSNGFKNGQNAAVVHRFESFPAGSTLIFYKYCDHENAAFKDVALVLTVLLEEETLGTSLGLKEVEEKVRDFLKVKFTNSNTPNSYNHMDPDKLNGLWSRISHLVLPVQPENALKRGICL
- Experiment Summary: compound microarray binding of lysate hLAP1 – cell lysate, small-molecule microarray, COS7 lysate, 635/667 nm fluorescence, primary screen (AID 1116)
- Condition Info: 635 nm fluorescence, higher = more signal
Readout Label: composite z-score

* [N-]=[N+]=Nc1ccccc1C[C@@]1(C(=O)NCC(O)CO)N=C(c2ccc(OCCCO)cc2)O[C@@H]1c1ccccc1 (some centres not stated) | 1.48
* CCOC(=O)C1=CC[C@@H](c2ccc(OC)cc2)N(S(=O)(=O)c2ccc(C)cc2)[C@H]1c1ccc(C)cc1 | 0.467
* CN(C)c1ccc(C(O)C2C=CC3C(=O)N(Cc4ccccc4)C(=O)C3N2n2cnnc2)cc1 (configuration not stated) | 0.304
* CN(C)CCCNC(=O)[C@@H]1c2ccccc2C(=O)N(Cc2ccccc2C(F)(F)F)[C@H]1c1ccc(CO)cc1 | 0.689
* CN1C(=O)C2C(C1=O)C1C=C(CCCO)C2C(C2CC2)N1Cc1cccc(OC(F)(F)F)c1 (configuration not stated) | 1.56
* O=C1N(CCS(=O)(=O)c2ccccc2)c2ccccc2C[C@]12N=C(c1ccc(OCCCO)cc1)O[C@@H]2c1ccccc1 | 1.93
* O=C(NC1CC1)[C@@H]1c2ccccc2C(=O)N(CC23CC4CC(CC(C4)C2)C3)[C@H]1c1ccc(CO)cc1 | 0.755
* O=C1C[C@@](C(=O)NC2CC2)(c2ccc([N+](=O)[O-])cc2)[C@@H](c2ccc(CO)cc2)N1C1CCCCC1 | 1.43
* Cc1ccc(S[C@]2(C(=O)NCCCN(C)C)CC(=O)N(Cc3ccccc3C(F)(F)F)[C@@H]2c2ccc(CO)cc2I)cc1 | 0.28
* CC1CC/C=C\[C@H]2OC34C=CCN(CCN5CCOCC5)C(=O)[C@H]3N(CCCO)C(=O)[C@@H]4C2C(=O)O1 (some centres not stated) | -0.181
* COc1ccc(CCNC(=O)[C@@H]2c3ccccc3C(=O)N(Cc3ccccc3OC)[C@H]2c2ccc(CO)cc2)cc1 | 0.966
* COCCCN1C(=O)[C@@]2(c3ccc([N+](=O)[O-])cc3)CC(=O)N(CC34CC5CC(CC(C5)C3)C4)[C@@H]2c2ccc(CO)cc21 | -0.507

###

- Experiment Summary: inhibition of PAO1 biofilm formation – strain PAO1, LB-PBS medium, absorbance 600 nm, primary screen (AID 1176); further: test concentration not given here
- Condition Info: P. aeruginosa PAO1 growth/biofilm, A600, 12 h; higher = more signal
Label Met when z-score is at or above -0.4; anything below gets Not met.

* CC(C)(C)OC(=O)CC[C@]1(C(=O)NCC(O)CO)N=C(c2ccc(OCCCO)cc2)O[C@H]1c1ccccc1N=[N+]=[N-] (stereo not given in full) | Met
* C=CC[C@@]12N=C(c3ccc(OCCCO)cc3)O[C@@H]1c1ccccc1N(CCC)C2=O | Met
* [N-]=[N+]=Nc1ccccc1C[C@]1(C(=O)N2CCOCC2)N=C(c2ccc(OCCCO)cc2)O[C@H]1c1ccccc1N=[N+]=[N-] | Not met
* CCCCC(O)C1C=CC2C(=O)N(c3ccccc3)C(=O)C2N1Nc1ccccc1 (stereo not given) | Met
* O=C1c2ccccc2[C@@]2(Cc3ccccc3N(Cc3ccccc3)C2=O)[C@H](c2ccc(CO)cc2)N1Cc1ccccc1Cl | Not met
